- Tested on: THRa:RXRa (NR concentration 90 nM, RXRa partner concentration 90 nM)
- measurement-notes: PBM binding z-score (relative to random genomic background probes); higher = stronger binding; sequences stand for … in GC…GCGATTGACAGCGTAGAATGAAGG
A collection of sequences and their measured PBM binding z-score
attribute-measured: PBM binding z-score

sequence-input	recorded-number
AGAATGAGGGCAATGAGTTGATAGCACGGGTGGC	1.59
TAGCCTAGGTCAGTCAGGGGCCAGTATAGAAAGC	1.86
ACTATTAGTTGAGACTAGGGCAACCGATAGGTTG	1.25
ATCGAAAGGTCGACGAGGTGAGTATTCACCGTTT	3.65
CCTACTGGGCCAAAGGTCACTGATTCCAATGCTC	3.42
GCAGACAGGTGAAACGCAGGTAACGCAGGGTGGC	1.51
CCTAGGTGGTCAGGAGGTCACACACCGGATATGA	3.45
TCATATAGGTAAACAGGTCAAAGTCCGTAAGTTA	2.27
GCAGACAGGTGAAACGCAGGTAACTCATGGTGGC	1
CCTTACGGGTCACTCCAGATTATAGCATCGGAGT	2.65
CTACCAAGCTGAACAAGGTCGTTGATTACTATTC	1.86
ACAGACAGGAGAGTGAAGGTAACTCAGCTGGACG	0.195
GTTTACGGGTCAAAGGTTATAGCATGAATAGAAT	3.94
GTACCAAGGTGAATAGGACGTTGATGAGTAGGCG	1.24
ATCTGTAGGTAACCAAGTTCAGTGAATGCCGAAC	1.26
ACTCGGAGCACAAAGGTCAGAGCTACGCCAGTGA	2.63
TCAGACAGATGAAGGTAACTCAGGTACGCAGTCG	1.03
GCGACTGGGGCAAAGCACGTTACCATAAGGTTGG	-0.139
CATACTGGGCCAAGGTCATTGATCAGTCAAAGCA	3.49
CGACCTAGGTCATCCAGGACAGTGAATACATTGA	4
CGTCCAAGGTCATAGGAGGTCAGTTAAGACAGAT	5.3
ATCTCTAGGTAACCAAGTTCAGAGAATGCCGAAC	1.46
TCATATAGGAAATACAGGTGAAAGTCGGCATCTA	0.441
ACTATTAGTCGAGACGAGGGCAACCGATAGGTTG	0.977
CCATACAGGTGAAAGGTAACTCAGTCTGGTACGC	1.08
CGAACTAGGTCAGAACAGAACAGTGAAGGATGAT	1.34

====

- Tested on: RARg:RXRa (NR concentration 270 nM, RXRa partner concentration 90 nM)
- measurement-notes: PBM binding z-score (relative to random genomic background probes); higher = stronger binding; sequences stand for … in GC…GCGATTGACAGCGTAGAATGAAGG

sequence-input	target-under-test	PBM binding z-score
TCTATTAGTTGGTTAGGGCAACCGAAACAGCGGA	RARg:RXRa (NR concentration 270 nM, RXRa partner concentration 90 nM)	0.47
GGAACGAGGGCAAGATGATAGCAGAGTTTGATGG	RARg:RXRa (NR concentration 270 nM, RXRa partner concentration 90 nM)	1.2
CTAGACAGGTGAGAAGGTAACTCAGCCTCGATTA	RARg:RXRa (NR concentration 270 nM, RXRa partner concentration 90 nM)	0.538
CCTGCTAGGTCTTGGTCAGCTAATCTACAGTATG	RARg:RXRa (NR concentration 270 nM, RXRa partner concentration 90 nM)	-0.194
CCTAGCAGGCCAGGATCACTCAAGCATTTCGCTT	RARg:RXRa (NR concentration 270 nM, RXRa partner concentration 90 nM)	-0.33
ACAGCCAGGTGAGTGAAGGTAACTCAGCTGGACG	RARg:RXRa (NR concentration 270 nM, RXRa partner concentration 90 nM)	-0.155
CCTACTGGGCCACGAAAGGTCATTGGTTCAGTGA	RARg:RXRa (NR concentration 270 nM, RXRa partner concentration 90 nM)	4.88
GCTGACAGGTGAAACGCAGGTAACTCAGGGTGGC	RARg:RXRa (NR concentration 270 nM, RXRa partner concentration 90 nM)	0.825
GCTTGTAGATCAAGGTTAATAAAGACTAAGCTAA	RARg:RXRa (NR concentration 270 nM, RXRa partner concentration 90 nM)	0.0476
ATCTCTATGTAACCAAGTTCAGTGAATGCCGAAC	RARg:RXRa (NR concentration 270 nM, RXRa partner concentration 90 nM)	0.518
ATCTCTAGGTAAGTCTCAGTTCAGTGAAGAACGC	RARg:RXRa (NR concentration 270 nM, RXRa partner concentration 90 nM)	0.158
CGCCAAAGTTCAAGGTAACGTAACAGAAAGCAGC	RARg:RXRa (NR concentration 270 nM, RXRa partner concentration 90 nM)	5.2
